target: KRAS G12D (Homo sapiens (Human), UniProt P01116+P62937, G12D); test: Ras-Raf (BRAF RBD) disruption / FRET / MOA assay, KRAS G12D; format: biochemical; details: Ras-Raf disruption/FRET/MOA assay; class symbols; read-out: KRAS G12D FRET data IC50
Sequence (P01116-2 other isoform, or with tags, fused parts or gaps G12D, one chain of several): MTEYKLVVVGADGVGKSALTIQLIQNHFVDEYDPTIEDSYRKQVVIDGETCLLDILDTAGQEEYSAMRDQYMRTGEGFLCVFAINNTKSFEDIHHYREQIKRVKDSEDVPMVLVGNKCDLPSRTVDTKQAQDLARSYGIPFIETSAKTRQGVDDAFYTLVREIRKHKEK
pIC50: −log10 of the molar value.
Exercise: state measured pIC50 for each of the compounds provided.

C=CC(=O)N1CC2(C1)CN(C(=O)N(C)[C@H](C(=O)N[C@H]1Cc3nc(cs3)-c3ccc4c(c3)c(c(-c3cccnc3[C@H](C)OC)n4CC)CC(C)(C)COC(=O)[C@@H]3CCCN(N3)C1=O)C(C)C)CCO2 (atropisomer, axis not shown) : 5.00 to 6.00

# batch size: 6; output pIC50 per entry
1. C=CC(=O)N1C[C@@H](C)[C@H](C(=O)N(C)[C@H](C(=O)N[C@H]2Cc3cccc(c3)-c3ccc4c(c3)c(c(-c3cccnc3[C@H](C)OC)n4CC)CC(C)(C)COC(=O)[C@@H]3CCCN(N3)C2=O)C(C)C)C1 (atropisomer, axis not shown)
2. C=CS(=O)(=O)N1CCC(C(=O)N(C)[C@H](C(=O)N[C@H]2Cc3nc(cs3)-c3ccc4c(c3)c(c(-c3cncnc3)n4CC)CC(C)(C)COC(=O)[C@@H]3CCCN(N3)C2=O)C(C)C)C1 (single isomer, unassigned)
3. C=CC(=O)NCCN(C)C(=O)N(C)[C@H](C(=O)N[C@H]1Cc2nc(cs2)-c2ccc3c(c2)c(c(-c2cccnc2[C@H](C)OC)n3CC)CC(C)(C)COC(=O)[C@@H]2CCCN(N2)C1=O)C(C)C (atropisomer, axis not shown)
4. CC#CC(=O)N1CC[C@H](C(=O)N(C)[C@H](C(=O)N[C@H]2Cc3cc(O)cc(c3)-c3ccc4c(c3)c(c(-c3ccccc3CCOC)n4CC)CC(C)(C)COC(=O)[C@@H]3CCCN(N3)C2=O)C(C)C)C1
5. CCn1c(-c2cccnc2[C@H](C)OC)c2c3cc(ccc31)-c1csc(n1)C[C@H](NC(=O)CCO[C@H]1CCN(C(=O)C#CC(C)(C)N3CCC3)C1)C(=O)N1CCC[C@H](N1)C(=O)OCC(C)(C)C2 (atropisomer, axis not shown)
6. C=CC(=O)N1CC[C@H](C(=O)N(C)[C@H](C(=O)N[C@H]2Cc3cc(OC4O[C@H](CO)[C@@H](O)[C@H](O)[C@H]4O)cc(c3)-c3ccc4c(c3)c(c(-c3cccnc3COC)n4CC)CC(C)(C)COC(=O)[C@@H]3CCCN(N3)C2=O)C(C)C)C1 (some centres unmarked)

["< 5.00", "< 5.00", "5.00 to 6.00", "< 5.00", "5.00 to 6.00", "< 5.00"]

Given the compound C=CC(=O)N1CC[C@H](C(=O)N(C)[C@H](C(=O)N[C@H]2Cc3cc(O)cc(c3)-c3ccc4c(c3)c(c(-c3cccc(CN(C)C)c3)n4CC)CC(C)(C)COC(=O)[C@@H]3CCCN(N3)C2=O)C(C)C)C1 , what is its reported pIC50?
< 5.00

* * *

Please respond with reported IC50 for every item in the list.
Molecular target: NRAS Q61K (Homo sapiens (Human), UniProt P01111+P62937, Q61K)
Sequence (P01111 whole entry Q61K): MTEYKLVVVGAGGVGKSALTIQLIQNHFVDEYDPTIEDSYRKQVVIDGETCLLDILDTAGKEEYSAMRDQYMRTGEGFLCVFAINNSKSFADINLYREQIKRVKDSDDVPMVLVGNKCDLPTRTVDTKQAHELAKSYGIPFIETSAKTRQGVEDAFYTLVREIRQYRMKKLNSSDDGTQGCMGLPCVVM
Sequence (P62937 whole entry): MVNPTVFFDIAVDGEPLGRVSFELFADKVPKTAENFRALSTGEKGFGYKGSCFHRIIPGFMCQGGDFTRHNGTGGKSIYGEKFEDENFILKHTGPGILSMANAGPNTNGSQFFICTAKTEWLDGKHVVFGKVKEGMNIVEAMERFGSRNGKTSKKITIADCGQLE
Experiment: Ras-Raf (BRAF RBD) disruption / FRET / MOA assay, NRAS Q61K
Type: biochemical
Settings: NRAS Q61K; Ras-Raf disruption/FRET/MOA assay; read-out: IC50* NRAS Q61K FRET data
Protocol: The purpose of this biochemical assay is to measure the ability of test compounds to facilitate ternary complex formation between a nucleotide-loaded Ras isoform and cyclophilin A; the resulting ternary complex disrupts binding to a BRAF^RBD construct, inhibiting Ras signaling through a RAF effector. […]. Compound is present in plate wells as a 10-point 3-fold dilution series starting at a final concentration of 30 μM. […]

Reference set (3 entries):
C=CC(=O)N(C)[C@H]1CC1N(C)C(=O)N(C)[C@H](C(=O)N[C@H]1Cc2nc(cs2)-c2ccc3c(c2)c(c(-c2cccnc2[C@H](C)OC)n3CC)CC(C)(C)COC(=O)[C@@H]2CCCN(N2)C1=O)C(C)C (stereo partly shown) : 100 to 1000 nM
C=CC(=O)N1CC[C@H](C(=O)N(C)[C@H](C(=O)N[C@H]2Cc3cc(ccn3)-c3ccc4c(c3)c(c(-c3cccnc3COC)n4CC)CC(C)(C)COC(=O)[C@@H]3CCCN(N3)C2=O)C(C)C)C1 : > 10000 nM
C=CC(=O)N1CCO[C@@H]2CCN(C(=O)N(C)[C@H](C(=O)N[C@H]3Cc4nc(cs4)-c4ccc5c(c4)c(c(-c4cccnc4[C@H](C)OC)n5CC)CC(C)(C)COC(=O)[C@@H]4CCCN(N4)C3=O)C(C)C)C[C@@H]21 (atropisomer, axis not shown) : 100 to 1000 nM

IC50 of C=CC(=O)N1CC[C@H](C(=O)N(C)[C@H](C(=O)N[C@H]2Cc3cc(sn3)-c3ccc4c(c3)c(c(-c3cccnc3[C@H](C)OC)n4CC)CC(C)(C)COC(=O)[C@@H]3CCCN(N3)C2=O)C(C)C)C1 (atropisomer, axis not shown) on NRAS Q61K (Homo sapiens (Human), UniProt P01111+P62937, Q61K)?
100 to 1000 nM

* * *

Target: NRAS Q61R (Homo sapiens (Human), UniProt P01111+P62937, Q61R)
Sequence (P01111 whole entry Q61R, one chain of several): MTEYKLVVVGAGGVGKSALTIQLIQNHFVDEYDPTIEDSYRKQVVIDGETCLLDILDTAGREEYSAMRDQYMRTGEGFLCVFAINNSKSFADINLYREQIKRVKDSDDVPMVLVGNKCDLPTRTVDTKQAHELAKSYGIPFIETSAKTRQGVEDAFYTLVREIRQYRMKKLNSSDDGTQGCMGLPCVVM
Test: Ras-Raf (BRAF RBD) disruption / FRET / MOA assay, NRAS Q61R
Type: biochemical
Conditions: NRAS Q61R; Ras-Raf disruption/FRET/MOA assay; read-out: IC50* NRAS Q61R FRET data
Protocol: The purpose of this biochemical assay is to measure the ability of test compounds to facilitate ternary complex formation between a nucleotide-loaded Ras isoform and cyclophilin A; the resulting ternary complex disrupts binding to a BRAF^RBD construct, inhibiting Ras signaling through a RAF effector. […]. Compound is present in plate wells as a 10-point 3-fold dilution series starting at a final concentration of 30 μM. […]
I'd be grateful if you could share measured IC50 for these entries.

C=CC(=O)N1CC[C@]2(C1)OCN([C@H](C(=O)N[C@H]1Cc3cccc(n3)-c3ccc4c(c3)c(c(-c3cccnc3[C@H](C)OC)n4CC)CC(C)(C)COC(=O)[C@@H]3CCCN(N3)C1=O)C(C)C)C2=O (atropisomer, axis not shown) [Example A652] : 1000 to 10000 nM

Need IC50 of CO[C@@H](C)c1ncccc1-c1c2c3cc(ccc3n1CC(F)(F)F)-c1nc(co1)C[C@H](NC(=O)[C@H](C(C)C)N(C)C(=O)C1(F)CCN(C(=O)C#CC(C)(C)N(C)C)CC1)C(=O)N1CCC[C@H](N1)C(=O)OCC(C)(C)C2 (atropisomer, axis not shown) [Example A578] , thanks.
100 to 1000 nM

* * *

test system: NCI-H358 (K-Ras G12C); experiment: CellTiter-Glo cell viability assay, NCI-H358; format: cell-based, human; conditions: Homo sapiens, NCI-H358, 120 h, NCI-H358, 5-day treatment; class symbols; read-out: Additional H358 Cell Viability assay data (K-Ras G12C, IC50)
Would you kindly list IC50 for each of these compounds?

# example entries with known answers
C=CC(=O)N1CC[C@H](C(=O)N(C)[C@H](C(=O)N[C@H]2Cc3cc(O)cc(c3)-c3ccc4c(c3)c(c(-c3cccnc3)n4CC)CC(C)(C)COC(=O)[C@@H]3CCCN(N3)C2=O)C(C)C)C1 : 10 to 100 nM
CO[C@@H](C)c1ncccc1-c1c2c3cc(ccc3n1CC(F)(F)F)N1CCO[C@@H](C[C@H](NC(=O)[C@@H](COC3CN(C(=O)C#CC(C)(C)N(C)C)C3)C(C)C)C(=O)N3CCC[C@H](N3)C(=O)OCC(C)(C)C2)C1 (atropisomer, axis not shown) : < 10 nM
C#CCn1c(-c2cccnc2[C@H](C)OC)c2c3cc(ccc31)-c1cccc(c1)C[C@H](NC(=O)[C@H](C(C)C)N(C)C(=O)[C@H]1CCN(C(=O)C=C)C1)C(=O)N1CCC[C@H](N1)C(=O)OCC(C)(C)C2 (atropisomer, axis not shown) : 10 to 100 nM
CCn1c(-c2ccccc2CN(C)C)c2c3cc(ccc31)-c1cc(O)cc(c1)C[C@H](NC(=O)[C@H](C(C)C)N(C)C(=O)c1ccc(NC(=O)/C=C/CN(C)C)cc1)C(=O)N1CCC[C@H](N1)C(=O)OCC(C)(C)C2 : > 1000 nM

Hi team, please reply with IC50 for each item in this list.
1. CC#CC(=O)N1CC[C@H](C(=O)N(C)[C@H](C(=O)N[C@H]2Cc3nc(cs3)-c3ccc4c(c3)c(c(-c3cccnc3[C@H](C)OC)n4CC)CC(C)(C)COC(=O)[C@@H]3CCCN(N3)C2=O)C2CCCC2)C1 (atropisomer, axis not shown)
2. C=CC(=O)N1CC[C@H](C(=O)N(C)[C@H](C(=O)N[C@H]2Cc3cc(O)cc(c3)-c3ccc4c(c3)c(c(-c3c(F)cccc3CCOC)n4CC)CC(C)(C)COC(=O)[C@@H]3CCCN(N3)C2=O)C(C)C)C1
3. C=C(OC)C(=O)N1CC2(CCN(C(=O)N(C)[C@H](C(=O)N[C@H]3Cc4nc(cs4)-c4ccc5c(c4)c(c(-c4cccnc4[C@H](C)OC)n5CC)CC(C)(C)COC(=O)[C@@H]4CCCN(N4)C3=O)C(C)C)CC2)C1 (atropisomer, axis not shown)
4. CCn1c(-c2ccccc2CN(C)C)c2c3cc(ccc31)-c1cc(O)cc(c1)C[C@H](NC(=O)[C@H](C(C)C)N(C)C(=O)c1ncc(NC(=O)/C=C/CN(C)C)n1C)C(=O)N1CCC[C@H](N1)C(=O)OCC(C)(C)C2
5. C=CC(=O)N1CC[C@H](C(=O)N(C)[C@H](C(=O)N[C@H]2Cc3cc(cc(C(F)F)c3)-c3ccc4c(c3)c(c(-c3cccnc3[C@H](C)OC)n4CC(F)(F)F)CC(C)(C)COC(=O)[C@@H]3CCCN(N3)C2=O)C(C)C)C1 (atropisomer, axis not shown)
6. CC#CC(=O)N1CC[C@@]2(CCN([C@H](C(=O)N[C@H]3Cc4cccc(c4)-c4ccc5c(c4)c(c(-c4cccnc4[C@H](C)OC)n5CC)CC(C)(C)COC(=O)[C@@H]4CCCN(N4)C3=O)C(C)C)C2=O)C1 (atropisomer, axis not shown)
7. CCn1c(-c2cccnc2[C@H](C)OC)c2c3cc(ccc31)-c1csc(n1)C[C@H](NC(=O)[C@H](C(C)C)N(C)C(=O)N1CCC13CN(C(=O)/C=C/CN1CCOCC1)C3)C(=O)N1CCC[C@H](N1)C(=O)OCC(C)(C)C2 (atropisomer, axis not shown)
8. CO[C@@H](C)c1ncccc1-c1c2c3cc(ccc3n1CC(F)(F)F)-c1cccc(c1)C[C@H](NC(=O)[C@@H](COC1CN(C(=O)C#CC3(C)OCCO3)C1)C(C)C)C(=O)N1CCC[C@H](N1)C(=O)OCC(C)(C)C2 (atropisomer, axis not shown)

1. < 10 nM
2. 100 to 1000 nM
3. 10 to 100 nM
4. 100 to 1000 nM
5. 10 to 100 nM
6. 10 to 100 nM
7. 10 to 100 nM
8. 10 to 100 nM
